The compounds listed here are annotated with their pIC50.
target under test: human recombinant PARG (Homo sapiens (Human), UniProt Q86W56)
Sequence (Q86W56 whole entry): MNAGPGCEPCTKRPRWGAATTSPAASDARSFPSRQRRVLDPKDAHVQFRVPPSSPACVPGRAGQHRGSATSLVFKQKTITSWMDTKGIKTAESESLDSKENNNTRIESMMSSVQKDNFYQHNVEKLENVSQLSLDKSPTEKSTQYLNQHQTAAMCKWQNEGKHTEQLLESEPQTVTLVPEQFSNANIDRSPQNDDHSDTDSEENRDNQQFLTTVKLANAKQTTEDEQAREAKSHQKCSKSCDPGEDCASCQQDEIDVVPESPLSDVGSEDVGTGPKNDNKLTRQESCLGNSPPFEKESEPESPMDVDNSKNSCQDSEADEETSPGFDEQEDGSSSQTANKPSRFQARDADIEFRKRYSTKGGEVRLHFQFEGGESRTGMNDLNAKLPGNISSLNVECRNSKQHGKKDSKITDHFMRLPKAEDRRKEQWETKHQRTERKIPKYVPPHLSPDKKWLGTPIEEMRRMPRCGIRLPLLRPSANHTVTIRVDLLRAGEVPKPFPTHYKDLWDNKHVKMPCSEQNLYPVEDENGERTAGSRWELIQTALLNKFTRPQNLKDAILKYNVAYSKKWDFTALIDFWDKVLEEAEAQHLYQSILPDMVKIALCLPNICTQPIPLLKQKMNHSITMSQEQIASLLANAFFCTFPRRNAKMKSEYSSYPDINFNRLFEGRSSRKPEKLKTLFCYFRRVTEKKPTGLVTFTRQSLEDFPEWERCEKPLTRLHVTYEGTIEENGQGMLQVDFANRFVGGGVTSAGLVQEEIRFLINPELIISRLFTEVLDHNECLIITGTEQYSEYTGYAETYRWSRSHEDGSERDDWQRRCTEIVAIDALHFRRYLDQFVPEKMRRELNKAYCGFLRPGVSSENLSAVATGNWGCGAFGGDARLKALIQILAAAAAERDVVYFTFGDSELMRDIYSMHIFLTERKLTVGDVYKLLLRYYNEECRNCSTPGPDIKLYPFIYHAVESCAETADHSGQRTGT
assay overview: PARG Activity Assay
test settings: recombinant human PARG 0.0185 nM, 1 hour pre-incubation, poly (ADP-ribose) substrate-coated plate, Abs 450
Scale note: pIC50 = -log10(concentration in M).

Example entries begin here.
>>> reported_result("Cn1cc(Cn2c(=O)c3cc(S(=O)(=O)NC4(C)CC4)sc3n(CC34CC(F)(C3)C4)c2=O)cn1")
6.62
>>> reported_result("CCNS(=O)(=O)c1cc2c(=O)n(Cc3cnc(C)s3)c(=O)n(CC3CC3)c2s1")
4.12

Here is the next item to consider.
Q: # returns recorded pIC50 (system: human recombinant PARG (Homo sapiens (Human), UniProt Q86W56)) for COc1c(C)cnc(Cn2c(=O)n(Cc3cnn(C)c3)c(=O)c3cc(S(=O)(=O)NC4(C)CC4)sc32)c1C
Ans: 5.93

* * *

target under test: human recombinant PARG (Homo sapiens (Human), UniProt Q86W56)
assay overview: PARG Activity Assay
test settings: recombinant human PARG 0.0185 nM, 1 hour pre-incubation, poly (ADP-ribose) substrate-coated plate, Abs 450
Criterion: IC50 strictly under 100 nM. Met: 1.0. Not met: 0.0.

Check out these entries, answers already filled in.
>>> assigned_class("Cc1ncc(Cn2c(=O)c3cc(S(=O)(=O)NC4(C)CC4)sc3n(CC3CCOC3)c2=O)s1 (centres unmarked) [Ex 16]")
0.0
>>> assigned_class("CNCCCC(=O)N1CCC(n2c(=O)n(Cc3cnn(C)c3)c(=O)c3cc(S(=O)(=O)NC4(C)CC4)sc32)CC1 [Ex 96]")
0.0
>>> assigned_class("Cc1nn(C)cc1Cn1c(=O)n(Cc2cnn(C)c2)c(=O)c2cc(S(=O)(=O)NC3(C)CC3)sc21 [Ex 32]")
0.0

Q: Decide: IC50 of Cn1cc(Cn2c(=O)c3cc(S(=O)(=O)NC4(C)CC4)sc3n(Cc3ccc(N4CCOCC4)nc3)c2=O)cn1 [Ex 81] strictly below 100 nM?
Ans: 0.0

Q: Decide: IC50 of Cc1ncc(Cn2c(=O)c3cc(S(=O)(=O)NC4(C)CC4)sc3n(CC3CCCO3)c2=O)s1 (centres unmarked) [Ex 15] strictly below 100 nM?
Ans: 0.0

Q: Decide: IC50 of Cc1cc2c(cc1Cn1c(=O)n(Cc3cnn(C)c3)c(=O)c3cc(S(=O)(=O)NC4(C)CC4)sc31)COC2 [Ex 113] strictly below 100 nM?
Ans: 1.0

Q: Decide: IC50 of Cn1cc(Cn2c(=O)c3cc(S(=O)(=O)NC4(C#N)CC4)sc3n(Cc3ccc(F)cc3)c2=O)cn1 [Ex 103] strictly below 100 nM?
Ans: 0.0

* * *

target under test: human recombinant PARG (Homo sapiens (Human))
assay overview: PARG Activity Assay
test settings: recombinant human PARG 0.0185 nM, 1 hour pre-incubation, poly (ADP-ribose) substrate-coated plate, Abs 450
The molecules listed here are annotated with their pIC50.
Scale note: pIC50 = -log10(concentration in M).

>>> reported_result("Cc1c(Cn2c(=O)n(Cc3cnn(C)c3)c(=O)c3cc(S(=O)(=O)NC4(C)CC4)sc32)ccc2c1COC2 [Ex 115]")
7.17
>>> reported_result("Cn1cc(Cn2c(=O)c3cc(S(=O)(=O)NC4(C)CC4)sc3n(Cc3ccn(C)c(=O)c3)c2=O)cn1 [Ex 85]")
6.96
>>> reported_result("Cn1cc(Cn2c(=O)c3cc(S(=O)(=O)NC4(C)CC4)sc3n(Cc3ccc(OC(F)(F)F)cc3)c2=O)cn1 [Ex 52]")
7.00

Q: I'd like to know its pIC50. The molecule in question is Cn1cc(Cn2c(=O)c3cc(S(=O)(=O)NC4(C)CC4)sc3n(Cc3ccc(F)c(Cl)c3)c2=O)cn1 [Ex 48]
Ans: 6.92
